- System: 786-0 complex spheroid viability
- PROCEDURE_DETAILS: Anticancer human tumor 786-0 cell line growth inhibition;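 also: spheroids exposed to agents for seven days before readout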
- EXPERIMENTAL_PARAMETERS: second compound 1 µM; first compound 0.3 µM; active compounds read low
Just a reminder that ties go to no (0): only viability, T/C strictly below 90% counts as yes (1).

COMPOUND	CATEGORY
NS(=O)(=O)OCC1CC(n2ccc3c(NC4CCc5ccccc54)ncnc32)CC1O (configuration not stated) + NC1CC1c1ccc(-c2cccc(O)c2)cc1	yes (1)
CCN(c1cc(-c2ccc(CN3CCOCC3)cc2)cc(C(=O)NCc2c(C)cc(C)[nH]c2=O)c1C)C1CCOCC1 + NC1CC1c1ccc(-c2cccc(O)c2)cc1	no (0)

Lookup: A record lists COc1cc(C2c3cc4c(cc3C(OC3OC5COC(C)OC5C(O)C3O)C3COC(=O)C23)OCO4)cc(OC)c1O (configuration not stated) + NC1CC1c1ccc(-c2cccc(O)c2)cc1 . Is its viability, T/C below 90%?
Found: yes (1)

Lookup: A record lists Nc1ncn(C2CC(O)C(CO)S2)c(=O)n1 (configuration not stated) + NC1CC1c1ccc(-c2cccc(O)c2)cc1 . Is its viability, T/C below 90%?
Found: yes (1)

Lookup: A record lists O=C(C=Cc1cccc(S(=O)(=O)Nc2ccccc2)c1)NO + NC1CCC(NC2CC2c2ccccc2)CC1 . Is its viability, T/C below 90%?
Found: no (0)

// data source = PubChem BioAssay AID1918944
